System: IGROV1 complex spheroids (HUVEC, MSC), viability % test/control
Test: Anticancer human tumor IGROV1 cell line growth inhibition [GQUAD];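 also: spheroids exposed to compounds for 7 days before readout; 100% = DMSO vehicle control viability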
Settings: second compound 0.1 µM; first compound 0.000999 µM; active compounds read low
assay.readout: viability, T/C

Some entries whose results are on file:
molecule: CC[C@@]1(O)C(=O)OCc2c1cc1n(c2=O)Cc2cc3c(CN(C)C)c(O)ccc3nc2-1 + Cc1[nH]c2ccc(F)cc2c1-c1nc2c3cccnc3c3ncccc3c2[nH]1
viability, T/C: 96.9%
//
molecule: Cc1[nH]c2ccccc2c1CCNCc1ccc(/C=C/C(=O)NO)cc1 + Cc1[nH]c2ccc(F)cc2c1-c1nc2c3cccnc3c3ncccc3c2[nH]1
viability, T/C: 91.8%
//
molecule: CCc1c2c(nc3ccc(O)cc13)-c1cc3c(c(=O)n1C2)COC(=O)[C@]3(O)CC + Cc1[nH]c2ccc(F)cc2c1-c1nc2c3cccnc3c3ncccc3c2[nH]1
viability, T/C: 58%
//
molecule: CC[C@@]1(O)C(=O)OCc2c1cc1n(c2=O)Cc2cc3c(CN(C)C)c(O)ccc3nc2-1 + CN(C)c1ccc(Nc2c3ccc(NC(=O)CCN4CCCC4)cc3nc3cc(NC(=O)CCN4CCCC4)ccc23)cc1
viability, T/C: 98.1%

The molecule listed as Cn1ncnc1[C@H]1c2n[nH]c(=O)c3cc(F)cc(c23)N[C@@H]1c1ccc(F)cc1 + Cc1cnc(CNC(=O)c2c(=O)c3ccc(N4CCCN(C)CC4)nc3n3c2sc2ccccc23)cn1 shows viability, T/C equal to 44.2%

The molecule listed as CCc1c2c(nc3ccc(O)cc13)-c1cc3c(c(=O)n1C2)COC(=O)[C@]3(O)CC + Cc1cnc(CNC(=O)c2c(=O)c3ccc(N4CCCN(C)CC4)nc3n3c2sc2ccccc23)cn1 shows viability, T/C equal to 17.2%

The molecule listed as CCc1c2c(nc3ccc(O)cc13)-c1cc3c(c(=O)n1C2)COC(=O)[C@]3(O)CC + CN(C)c1ccc(Nc2c3ccc(NC(=O)CCN4CCCC4)cc3nc3cc(NC(=O)CCN4CCCC4)ccc23)cc1 shows viability, T/C equal to 51.9%

The molecule listed as Cc1[nH]c2ccccc2c1CCNCc1ccc(/C=C/C(=O)NO)cc1 + CN(C)c1ccc(Nc2c3ccc(NC(=O)CCN4CCCC4)cc3nc3cc(NC(=O)CCN4CCCC4)ccc23)cc1 shows viability, T/C equal to 84.3%

The molecule listed as Cn1ncnc1[C@H]1c2n[nH]c(=O)c3cc(F)cc(c23)N[C@@H]1c1ccc(F)cc1 + CN(C)c1ccc(Nc2c3ccc(NC(=O)CCN4CCCC4)cc3nc3cc(NC(=O)CCN4CCCC4)ccc23)cc1 shows viability, T/C equal to 101%
